Items are presented alongside their recorded remaining activity at 3 µM.
# studySystem: HMGCR (TM1-8)-GFP (Cricetulus griseus)
# Sequence (P00347 1-346): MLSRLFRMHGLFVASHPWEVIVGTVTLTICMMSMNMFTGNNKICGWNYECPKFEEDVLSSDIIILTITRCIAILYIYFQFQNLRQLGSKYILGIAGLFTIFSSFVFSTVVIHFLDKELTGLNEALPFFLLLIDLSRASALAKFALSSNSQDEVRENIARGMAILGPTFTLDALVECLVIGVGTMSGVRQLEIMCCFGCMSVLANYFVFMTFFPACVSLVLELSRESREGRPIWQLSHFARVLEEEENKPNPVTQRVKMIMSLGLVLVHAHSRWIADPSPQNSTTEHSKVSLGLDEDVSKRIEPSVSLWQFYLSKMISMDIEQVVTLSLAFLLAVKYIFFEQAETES
# methodDescription: HMGCR (TM1-8)-GFP fluorescent assay (high-content imaging) in CHG cells
# conditions: 16 h, read-out: HMGCR (TM1-8)-GFP fluorescent intensity, mean

{"compound": "CC(C)CCC[C@@H](C)[C@H]1CCC2C3C(CC[C@@]21C)[C@@]1(C)CC[C@H](O)C(C)(C)C1=C[C@H]3N=[N+]=[N-] (some centres unmarked)", "remaining activity at 3 µM [%]": 99.4}
{"compound": "CC(C)CCC[C@@H](C)[C@H]1CC[C@H]2[C@@H]3CC=C4C[C@@H](O)CC[C@]4(C)[C@H]3CC[C@]12C", "remaining activity at 3 µM [%]": 66.6}
{"compound": "CCC1(CC)C2=CCC3C(CC[C@@]4(C)C3CC[C@@H]4[C@H](C)CCCC(C)C)[C@@]2(C)CC[C@@H]1O (some centres unmarked)", "remaining activity at 3 µM [%]": 83.2}
{"compound": "CC(C)CCC[C@@H](C)[C@H]1CC[C@H]2[C@@H]3[C@@H](O)C=C4C(C)(C)[C@@H](O)CC[C@]4(C)[C@H]3CC[C@]12C [Compound 35, 4,4-Dimethyl 7β-hydroxyl cholesterol]", "remaining activity at 3 µM [%]": 54.5}
{"compound": "CC(C)CCC[C@@H](C)[C@H]1CCC2C3CC=C4C5(CCCCC5)[C@@H](O)CC[C@]4(C)C3CC[C@@]21C (some centres unmarked)", "remaining activity at 3 µM [%]": 102}
{"compound": "CC(C)CCC[C@@H](C)[C@H]1CCC2C3C(=O)C=C4C(C)(C)[C@@H](O)CC[C@]4(C)C3CC[C@@]21C (some centres unmarked)", "remaining activity at 3 µM [%]": 96.3}
{"compound": "CC(C)CCC[C@@H](C)[C@H]1CC[C@H]2[C@@H]3CC=C4C(C)(C)[C@@H](O)CC[C@]4(C)[C@H]3CC[C@]12C", "remaining activity at 3 µM [%]": 71.9}
{"compound": "C=CCC1(CC=C)C2=CCC3C(CC[C@@]4(C)C3CC[C@@H]4[C@H](C)CCCC(C)C)[C@@]2(C)CC[C@@H]1O (some centres unmarked)", "remaining activity at 3 µM [%]": 90.8}
{"compound": "CC(=O)N[C@@H]1C=C2C(C)(C)[C@@H](O)CC[C@]2(C)C2CC[C@@]3(C)C(CC[C@@H]3[C@H](C)CCCC(C)C)C21 (some centres unmarked)", "remaining activity at 3 µM [%]": 101}
{"compound": "CC(C)CCC[C@@H](C)[C@H]1CCC2C3C(CC[C@@]21C)[C@@]1(C)CC[C@H](O)C(C)(C)C1=C[C@H]3N (some centres unmarked)", "remaining activity at 3 µM [%]": 93.4}
{"compound": "CC(C)CCC[C@@H](C)[C@H]1CCC2C3C(CC[C@@]21C)[C@@]1(C)CC[C@H](O)C(C)(C)C1=C[C@H]3O (some centres unmarked)", "remaining activity at 3 µM [%]": 69.8}
{"compound": "COCCC1(CCOC)C2=CCC3C(CC[C@@]4(C)C3CC[C@@H]4[C@H](C)CCCC(C)C)[C@@]2(C)CC[C@@H]1O (some centres unmarked)", "remaining activity at 3 µM [%]": 93.4}
{"compound": "CCC1(CCOC)C2=CCC3C(CCC4(C)C(C(C)CCCC(C)C)CCC34)C2(C)CCC1O (centres unmarked)", "remaining activity at 3 µM [%]": 91.7}
{"compound": "CC(C)CCC[C@@H](C)[C@H]1CCC2C3C(=NO)C=C4C(C)(C)[C@@H](O)CC[C@]4(C)C3CC[C@@]21C (some centres unmarked)", "remaining activity at 3 µM [%]": 65.6}
